biological target: T1, human CD47 on cells (SHP-77 tumor cells, human red blood cells, CCRF-CEM cells, human CD47 CHO-K1 stable cell … (human, UniProt Q08722 19-323)); assay: flow cytometry on human CD47 CHO-K1 cells; plateau not reached, not accurate
T1 construct: whole, on cells; also called RBC
assay readout: EC50 (nM)

binder | assay readout | reported measurement
108VH10.Mk / 108VL10.Me (antibody, V domains shown, 4D5-framework series; also called VH10.Mk VL10.Me) VH: EVQLVESGGGLVQPGGSLRLSCAASGFTFSHHWIHWVRQAPGKGLEWVAMIDASDSETRLSQKVKDRFTISADTSKNTAYLQMNSLRAEDTAVYYCSRLGRYYFDYWGQGTLVTVSS VL: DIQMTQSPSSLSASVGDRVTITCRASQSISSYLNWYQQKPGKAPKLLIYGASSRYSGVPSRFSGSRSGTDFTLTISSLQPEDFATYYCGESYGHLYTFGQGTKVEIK | EC50 | 5.4
